Int.* (Ratio) (Interference) for assorted compounds
Target: HCV NS3 helicase NS3h_1b(con1) (Hepatitis C virus genotype 1b, UniProt Q9WMX2)
Construct: truncated C-terminally His-tagged NS3 proteins lacking the N-terminal protease, called NS3h; His-tag (C); made in house
Sequence (Q9WMX2 1192-1657): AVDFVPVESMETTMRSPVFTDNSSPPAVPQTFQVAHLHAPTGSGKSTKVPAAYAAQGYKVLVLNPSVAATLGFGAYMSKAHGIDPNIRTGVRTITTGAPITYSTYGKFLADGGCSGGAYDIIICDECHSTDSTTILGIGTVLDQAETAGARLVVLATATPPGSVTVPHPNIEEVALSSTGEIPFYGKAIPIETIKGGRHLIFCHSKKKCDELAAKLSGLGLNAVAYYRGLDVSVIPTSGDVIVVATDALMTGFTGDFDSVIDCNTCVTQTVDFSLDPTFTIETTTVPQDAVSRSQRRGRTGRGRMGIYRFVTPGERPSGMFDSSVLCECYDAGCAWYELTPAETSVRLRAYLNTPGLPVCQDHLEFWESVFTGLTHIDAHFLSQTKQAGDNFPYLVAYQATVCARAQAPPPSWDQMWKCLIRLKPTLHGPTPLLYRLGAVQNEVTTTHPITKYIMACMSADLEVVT
Experiment: MBHA screen of NCI mechanistic set library at 20 μM (percent inhibition, compound interference)
Format: biochemical
Conditions: compounds at 20 μM; assay interference calculated with Equation 2 (fluorescence vs DMSO-only controls before ATP)
ASSAY METRIC: Int.* (Ratio) (Interference)

1. Oc1[nH]c2ccccc2c1N=Nc1nc(-c2ccc(Br)cc2)cs1 :: 0.85
2. O=C(c1ccccc1)C1OC12C(=O)Nc1c(Cl)cc(Cl)cc12 (stereo not drawn) :: 0.96
3. Cl.NC1(CCNC(=O)c2ccccc2)CCN(C(=O)c2ccccc2)CC1 :: 0.99
4. Cc1c2ccncc2c(C)c2c1sc1ccccc12 :: 1.18
5. C=C(C)[C@@H]1CC[C@]2(C(=O)O)CC[C@]3(C)[C@H](CC[C@@H]4[C@@]5(C)CC[C@H](O)C(C)(C)[C@@H]5CC[C@]43C)[C@@H]12 :: 1.00
6. CC1=C(N2CC2)C(=O)c2nc3n(c2C1=O)CCC3OC(=O)CCl (stereo not drawn) :: 0.85
7. CCC[CH2][Sn]([CH2]CCC)([CH2]CCC)[O]c1cc(Cl)c(Cl)cc1Cl :: 0.91
8. O=C1c2ccccc2C(=O)c2sc(Nc3ccc(Cl)c(Cl)c3)nc21 :: 0.93
9. Cc1nc(-c2cccnc2)sc1C(=O)/C=C/c1ccc(Cl)cc1Cl :: 1.09
10. COC(=O)c1ccc(NCc2cc(O)ccc2O)cc1 :: 1.02
11. O=C1C=CC(CC(=O)c2ccc3ccccc3c2)O1 (stereo not drawn) :: 1.12
12. NC1=NCN([C@@H]2O[C@H](CO)[C@@H](O)[C@H]2O)C(=O)N1 :: 1.28
13. O=C1c2ccccc2C(=O)C1C(c1ccc([N+](=O)[O-])cc1)C1C(=O)c2ccccc2C1=O :: 0.98
14. CC(Cc1ccccc1)NC1=NCCO1 (stereo not drawn) :: 0.96
15. NP(=O)(Oc1c2occc2cc2ccc(=O)oc12)N(CCCl)CCCl (stereo not drawn) :: 0.95
16. O=C(/C=C/c1c(O)ccc2ccccc12)c1cccc(O)c1 :: 0.91
17. N#CC(=C1C=CC(=NO)C=C1)c1ccc(Cl)cc1 :: 1.09
18. NC1(C(=O)O)CCCC1 :: 0.90
